Origin of values: BigSolDB 2.1

Conditions: in acetone, 294.05 K
measurement.type: solubility (mole fraction)

O=C1Cc2ccccc2N1 : 0.0602

###

Settings: in methanol, 317.45 K
measurement.type: solubility (mole fraction)

O=C1Cc2ccccc2N1 : 0.0119

###

Details: in THF, 307.25 K
measurement.type: solubility (mole fraction)

O=C1Cc2ccccc2N1 : 0.0181

###

Details: in methanol, 307.65 K
measurement.type: solubility (mole fraction)

O=C1Cc2ccccc2N1 : 0.00821

###

Settings: in toluene, 327.35 K
measurement.type: solubility (mole fraction)

O=C1Cc2ccccc2N1 : 0.0615

###

Conditions: in n-butanol, 312.55 K
measurement.type: solubility (mole fraction)

O=C1Cc2ccccc2N1 : 0.00674

###

Conditions: in THF, 298.65 K
measurement.type: solubility (mole fraction)

O=C1Cc2ccccc2N1 : 0.0133

###

Details: in ethanol, 322.65 K
measurement.type: solubility (mole fraction)

O=C1Cc2ccccc2N1 : 0.0568

###

Conditions: in 1,4-dioxane, 311.65 K
measurement.type: solubility (mole fraction)

O=C1Cc2ccccc2N1 : 0.448

###

Details: in ethyl acetate, 308.65 K
measurement.type: solubility (mole fraction)

O=C1Cc2ccccc2N1 : 0.215

###

Details: in THF, 293.85 K
measurement.type: solubility (mole fraction)

O=C1Cc2ccccc2N1 : 0.0116

###

Conditions: in toluene, 302.95 K
measurement.type: solubility (mole fraction)

O=C1Cc2ccccc2N1 : 0.00796

###

Conditions: in ethyl acetate, 315.35 K
measurement.type: solubility (mole fraction)

O=C1Cc2ccccc2N1 : 0.247

###

Conditions: in acetonitrile, 308.65 K
measurement.type: solubility (mole fraction)

O=C1Cc2ccccc2N1 : 0.123

###

Settings: in acetone, 328.25 K
measurement.type: solubility (mole fraction)

O=C1Cc2ccccc2N1 : 0.127

###

Details: in THF, 327.35 K
measurement.type: solubility (mole fraction)

O=C1Cc2ccccc2N1 : 0.0327

###

Conditions: in acetone, 288.15 K
measurement.type: solubility (mole fraction)

O=C1Cc2ccccc2N1 : 0.0498

###

Settings: in 1,4-dioxane, 328.15 K
measurement.type: solubility (mole fraction)

O=C1Cc2ccccc2N1 : 0.567

###

Details: in n-butanol, 302.95 K
measurement.type: solubility (mole fraction)

O=C1Cc2ccccc2N1 : 0.00468

###

Settings: in isopropanol, 313.15 K
measurement.type: solubility (mole fraction)

O=C1Cc2ccccc2N1 : 0.0192

###

Details: in isopropanol, 322.15 K
measurement.type: solubility (mole fraction)

O=C1Cc2ccccc2N1 : 0.0287

###

Details: in ethanol, 302.95 K
measurement.type: solubility (mole fraction)

O=C1Cc2ccccc2N1 : 0.0186

###

Conditions: in n-butanol, 327.35 K
measurement.type: solubility (mole fraction)

O=C1Cc2ccccc2N1 : 0.0115

###

Settings: in n-propanol, 299.35 K
measurement.type: solubility (mole fraction)

O=C1Cc2ccccc2N1 : 0.0476

###

Conditions: in methanol, 297.95 K
measurement.type: solubility (mole fraction)

O=C1Cc2ccccc2N1 : 0.00563

###

Settings: in ethanol, 332.65 K
measurement.type: solubility (mole fraction)

O=C1Cc2ccccc2N1 : 0.0952

###

Conditions: in acetonitrile, 287.15 K
measurement.type: solubility (mole fraction)

O=C1Cc2ccccc2N1 : 0.0508

###

Conditions: in dichloromethane, 296.15 K
measurement.type: solubility (mole fraction)

O=C1Cc2ccccc2N1 : 0.0419

###

Conditions: in THF, 333.95 K
measurement.type: solubility (mole fraction)

O=C1Cc2ccccc2N1 : 0.0397

###

Conditions: in ethyl acetate, 328.15 K
measurement.type: solubility (mole fraction)

O=C1Cc2ccccc2N1 : 0.32

###

Settings: in n-propanol, 313.15 K
measurement.type: solubility (mole fraction)

O=C1Cc2ccccc2N1 : 0.0677

###

Settings: in ethyl acetate, 296.15 K
measurement.type: solubility (mole fraction)

O=C1Cc2ccccc2N1 : 0.169

###

Settings: in 1,4-dioxane, 296.15 K
measurement.type: solubility (mole fraction)

O=C1Cc2ccccc2N1 : 0.336

###

Details: in ethyl acetate, 311.65 K
measurement.type: solubility (mole fraction)

O=C1Cc2ccccc2N1 : 0.233

###

Details: in ethyl acetate, 323.15 K
measurement.type: solubility (mole fraction)

O=C1Cc2ccccc2N1 : 0.287

###

Details: in 1,4-dioxane, 315.35 K
measurement.type: solubility (mole fraction)

O=C1Cc2ccccc2N1 : 0.475

###

Details: in n-butanol, 307.25 K
measurement.type: solubility (mole fraction)

O=C1Cc2ccccc2N1 : 0.00546

###

Conditions: in THF, 312.55 K
measurement.type: solubility (mole fraction)

O=C1Cc2ccccc2N1 : 0.021

###

Settings: in isopropanol, 297.95 K
measurement.type: solubility (mole fraction)

O=C1Cc2ccccc2N1 : 0.00919

###

Details: in n-propanol, 320.75 K
measurement.type: solubility (mole fraction)

O=C1Cc2ccccc2N1 : 0.0814

###

Conditions: in methanol, 332.35 K
measurement.type: solubility (mole fraction)

O=C1Cc2ccccc2N1 : 0.019

###

Settings: in 1,4-dioxane, 287.15 K
measurement.type: solubility (mole fraction)

O=C1Cc2ccccc2N1 : 0.276

###

Conditions: in isopropanol, 317.45 K
measurement.type: solubility (mole fraction)

O=C1Cc2ccccc2N1 : 0.0232

###

Conditions: in acetone, 314.45 K
measurement.type: solubility (mole fraction)

O=C1Cc2ccccc2N1 : 0.102

###

Conditions: in methanol, 312.55 K
measurement.type: solubility (mole fraction)

O=C1Cc2ccccc2N1 : 0.00977

###

Details: in methanol, 291.95 K
measurement.type: solubility (mole fraction)

O=C1Cc2ccccc2N1 : 0.00441

###

Details: in n-butanol, 317.05 K
measurement.type: solubility (mole fraction)

O=C1Cc2ccccc2N1 : 0.00793

###

Details: in toluene, 332.05 K
measurement.type: solubility (mole fraction)

O=C1Cc2ccccc2N1 : 0.0848

###

Conditions: in dichloromethane, 292.15 K
measurement.type: solubility (mole fraction)

O=C1Cc2ccccc2N1 : 0.0383

###

Conditions: in ethanol, 312.55 K
measurement.type: solubility (mole fraction)

O=C1Cc2ccccc2N1 : 0.0324

###

Settings: in THF, 317.05 K
measurement.type: solubility (mole fraction)

O=C1Cc2ccccc2N1 : 0.0243

###

Conditions: in methanol, 322.15 K
measurement.type: solubility (mole fraction)

O=C1Cc2ccccc2N1 : 0.0137

###

Conditions: in acetone, 304.55 K
measurement.type: solubility (mole fraction)

O=C1Cc2ccccc2N1 : 0.0812

###

Conditions: in toluene, 297.95 K
measurement.type: solubility (mole fraction)

O=C1Cc2ccccc2N1 : 0.00526

###

Settings: in acetonitrile, 319.05 K
measurement.type: solubility (mole fraction)

O=C1Cc2ccccc2N1 : 0.196

###

Settings: in dichloromethane, 311.65 K
measurement.type: solubility (mole fraction)

O=C1Cc2ccccc2N1 : 0.0552

###

Details: in acetone, 325.55 K
measurement.type: solubility (mole fraction)

O=C1Cc2ccccc2N1 : 0.122

###

Conditions: in toluene, 307.65 K
measurement.type: solubility (mole fraction)

O=C1Cc2ccccc2N1 : 0.0121

###

Details: in isopropanol, 291.95 K
measurement.type: solubility (mole fraction)

O=C1Cc2ccccc2N1 : 0.00673

###

Conditions: in acetonitrile, 304.15 K
measurement.type: solubility (mole fraction)

O=C1Cc2ccccc2N1 : 0.101

###

Conditions: in n-propanol, 333.35 K
measurement.type: solubility (mole fraction)

O=C1Cc2ccccc2N1 : 0.109

###

Conditions: in isopropanol, 328.35 K
measurement.type: solubility (mole fraction)

O=C1Cc2ccccc2N1 : 0.0355

###

Conditions: in 1,4-dioxane, 300.15 K
measurement.type: solubility (mole fraction)

O=C1Cc2ccccc2N1 : 0.363

###

Settings: in 1,4-dioxane, 292.15 K
measurement.type: solubility (mole fraction)

O=C1Cc2ccccc2N1 : 0.309

###

Settings: in acetone, 309.65 K
measurement.type: solubility (mole fraction)

O=C1Cc2ccccc2N1 : 0.0919

###

Conditions: in acetonitrile, 323.15 K
measurement.type: solubility (mole fraction)

O=C1Cc2ccccc2N1 : 0.227

###

Conditions: in toluene, 317.45 K
measurement.type: solubility (mole fraction)

O=C1Cc2ccccc2N1 : 0.0258

###

Conditions: in 1,4-dioxane, 308.65 K
measurement.type: solubility (mole fraction)

O=C1Cc2ccccc2N1 : 0.421

###

Details: in acetonitrile, 292.15 K
measurement.type: solubility (mole fraction)

O=C1Cc2ccccc2N1 : 0.0628

###

Conditions: in ethyl acetate, 292.15 K
measurement.type: solubility (mole fraction)

O=C1Cc2ccccc2N1 : 0.156

###

Conditions: in n-propanol, 308.35 K
measurement.type: solubility (mole fraction)

O=C1Cc2ccccc2N1 : 0.0599

###

Settings: in acetonitrile, 296.15 K
measurement.type: solubility (mole fraction)

O=C1Cc2ccccc2N1 : 0.0748
